The values you see were collected from ChEMBL document CHEMBL2086358.

Target entity: UniProt O94760
Sequence (O94760 whole entry): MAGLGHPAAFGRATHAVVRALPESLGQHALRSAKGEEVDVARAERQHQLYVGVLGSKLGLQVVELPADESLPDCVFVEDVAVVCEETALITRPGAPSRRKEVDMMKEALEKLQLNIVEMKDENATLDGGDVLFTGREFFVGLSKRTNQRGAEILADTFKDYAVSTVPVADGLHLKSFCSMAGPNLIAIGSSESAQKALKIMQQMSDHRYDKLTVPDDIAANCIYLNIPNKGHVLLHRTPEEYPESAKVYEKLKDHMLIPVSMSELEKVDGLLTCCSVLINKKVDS
Assay comment: Inhibition of human recombinant His6-tagged DDAH1 expressed in Escherichia coli BL21(DE3) using Nomega,Nomega-dimethyl-L-arginine as substrate at 400 uM after 1 to 2 hrs by colorimetric ureido derivitization assay
Metric: inhibition (%)
Please respond with the number in % and leave the unit unwritten.

| Compound smiles | Target entity | Units text | inhibition |
| --- | --- | --- | --- |
| NCCSc1nc2ccccc2o1 | UniProt O94760 | % | 21 |
| OCc1cc(Cl)ccn1 | UniProt O94760 | % | 56 |
| CCc1nc2ccccc2[nH]1 | UniProt O94760 | % | 36 |

Moving on to another compound below.
Dear colleague, please send me the reported inhibition for Cc1cc(Br)ccn1 when you can.
74
